MEASUREMENT DESCRIPTION: MTT assay, toxicity on HDFa cells
Type: cell-based
SETTINGS: human, 0.1 mg/mL peptide, normalized to non-treated cells, read-out: Cell viability
Method: Toxicity of cycled peptides A and B was analyzed on human dermal fibroblasts (HDFa) and adult human epidermal keratinocytes HEKa cells by MTT assay. A stock solution of the peptide was prepared in distilled water at 25 mg/mL. […] Absorbance values were normalized using the data obtained for non-treated cells (control), obtaining the % of viability shown in Tables 1 and 2. […]
Peptide text beside a SMILES is read from it.
viability at 24 h for assorted molecules
Field format: number, assumed %, no unit text.

[
  {
    "MOLECULE": "CC(C)C[C@@H]1NC(=O)[C@H](C)NC(=O)[C@H](Cc2c[nH]cn2)NC(=O)[C@H](Cc2c[nH]c3ccccc23)NC(=O)[C@H](Cc2ccccc2)NC(=O)[C@H](CCCNC(=N)N)NC1=O [Peptide B, cyclo-Phe-Trp- His- Ala-Leu-Arg]",
    "viability at 24 h [%]": 88.2
  }
]

Now, please, on to the next molecule.
Query block: viability at 24 h for CC(C)C[C@@H]1NC(=O)[C@H](C)NC(=O)[C@H](CCCNC(=N)N)NC(=O)[C@H](Cc2ccccc2)NC(=O)[C@H](Cc2c[nH]c3ccccc23)NC(=O)[C@H](Cc2c[nH]cn2)NC1=O [Peptide A, cyclo-Trp-Phe-Arg-Ala-Leu-His] (cyclo(ALHWFR)) ?
Result block: 92.3

---

viability at 24 h listing for selected molecules.
MEASUREMENT DESCRIPTION: MTT assay, toxicity on HEKa cells
Assay type: cell-based
SETTINGS: human, 0.005 mg/mL peptide, normalized to non-treated cells, read-out: Cell viability
Peptide text beside a SMILES is read from it.
Provide the reading as a plain figure in %.

[
  {
    "MOLECULE": "CC(C)C[C@@H]1NC(=O)[C@H](C)NC(=O)[C@H](CCCNC(=N)N)NC(=O)[C@H](Cc2ccccc2)NC(=O)[C@H](Cc2c[nH]c3ccccc23)NC(=O)[C@H](Cc2c[nH]cn2)NC1=O [Peptide A, cyclo-Trp-Phe-Arg-Ala-Leu-His] (cyclo(ALHWFR))",
    "ASSAY METRIC": "viability at 24 h",
    "READING UNIT": "%",
    "REPORTED VALUE": 108
  }
]

// switching to the query molecule
Query block: Can you share its viability at 24 h? I mean this molecule: CC(C)C[C@@H]1NC(=O)[C@H](C)NC(=O)[C@H](Cc2c[nH]cn2)NC(=O)[C@H](Cc2c[nH]c3ccccc23)NC(=O)[C@H](Cc2ccccc2)NC(=O)[C@H](CCCNC(=N)N)NC1=O [Peptide B, cyclo-Phe-Trp- His- Ala-Leu-Arg]
Result block: 103

---

MEASUREMENT DESCRIPTION: MTT assay, toxicity on HDFa cells
Assay type: cell-based
SETTINGS: human, 0.5 mg/mL peptide, normalized to non-treated cells, read-out: Cell viability
Peptide text beside a SMILES is read from it.
ASSAY METRIC: viability at 24 h (%)
Record the value in %, omitting the unit from your answer.

[
  {
    "COMPOUND": "CC(C)C[C@@H]1NC(=O)[C@H](C)NC(=O)[C@H](CCCNC(=N)N)NC(=O)[C@H](Cc2ccccc2)NC(=O)[C@H](Cc2c[nH]c3ccccc23)NC(=O)[C@H](Cc2c[nH]cn2)NC1=O [Peptide A, cyclo-Trp-Phe-Arg-Ala-Leu-His] (cyclo(ALHWFR))",
    "REPORTED VALUE": 81.5
  }
]

Query block: # viability at 24 h lookup, item CC(C)C[C@@H]1NC(=O)[C@H](C)NC(=O)[C@H](Cc2c[nH]cn2)NC(=O)[C@H](Cc2c[nH]c3ccccc23)NC(=O)[C@H](Cc2ccccc2)NC(=O)[C@H](CCCNC(=N)N)NC1=O [Peptide B, cyclo-Phe-Trp- His- Ala-Leu-Arg]
Result block: 73.7

All figures here come from patent EP4417190A1.
